# test.system: T1, human IL-2Rβ (human, UniProt P14784 27-240, limits assumed)
# T1 construct: also called hIL-2Rβ; IL-2 receptor beta
# T1 sequence (looked up): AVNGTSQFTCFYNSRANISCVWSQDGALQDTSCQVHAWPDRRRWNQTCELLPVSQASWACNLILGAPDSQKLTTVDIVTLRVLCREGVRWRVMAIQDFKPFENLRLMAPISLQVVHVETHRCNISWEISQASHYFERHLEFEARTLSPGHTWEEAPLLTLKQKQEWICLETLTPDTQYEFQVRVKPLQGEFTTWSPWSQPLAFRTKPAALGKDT
# experiment.description: SPR, steady state
test.readout: Kd (nM)
Answer in nM, number only, no unit symbol.

The following binders have reported results that may help.
>  <binder>
hIL-15 V49R/N4M (ligand) NWVMVISDLKKIEDLIQSMHIDATLYTESDVHPSCKVTAMKCFLLELQRISLESGDASIHDTVENLIILANNSLSSNGNVTESGCKECEELEEKNIKEFLQSFVHIVQMFINTGGGGSGHHHHHHHHGGGLNDIFEAQKIEWHE

>  <recorded.number>
233

$$$$
>  <binder>
hIL-15 V49R/N72S (ligand) NWVNVISDLKKIEDLIQSMHIDATLYTESDVHPSCKVTAMKCFLLELQRISLESGDASIHDTVENLIILANSSLSSNGNVTESGCKECEELEEKNIKEFLQSFVHIVQMFINTGGGGSGHHHHHHHHGGGLNDIFEAQKIEWHE

>  <recorded.number>
182

$$$$

Below: the item to evaluate.
Qu. # get_value(readout='Kd', item= hIL-15 V49R/D30Y (ligand) NWVNVISDLKKIEDLIQSMHIDATLYTESYVHPSCKVTAMKCFLLELQRISLESGDASIHDTVENLIILANNSLSSNGNVTESGCKECEELEEKNIKEFLQSFVHIVQMFINTGGGGSGHHHHHHHHGGGLNDIFEAQKIEWHE )
Ans. 231
